Attribute: % kill, BxPC3 cells, anti-kappa-ETA' assay
# Test system: membrane-bound tissue factor (TF) on cells (human, UniProt P13726 33-295); note: test concentration or dose not given here
# Test name: cell-based or functional assay
Kindly write the number and append the unit.

Anti-TF HuMab 098 (antibody, IgG1, V domains shown, full length, fully human monoclonal IgG1,kappa; also called HuMab-TF-098) VH: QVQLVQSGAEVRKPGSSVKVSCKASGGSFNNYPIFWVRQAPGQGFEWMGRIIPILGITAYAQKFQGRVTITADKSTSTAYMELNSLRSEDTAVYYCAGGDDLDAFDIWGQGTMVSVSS VL: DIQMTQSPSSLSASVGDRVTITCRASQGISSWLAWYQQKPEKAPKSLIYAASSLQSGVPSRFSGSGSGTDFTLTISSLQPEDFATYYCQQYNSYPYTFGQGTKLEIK    99%

What value of measured % kill, BxPC3 cells, anti-kappa-ETA' assay is listed for HuMab-TF-044 (antibody, V domains shown) VH: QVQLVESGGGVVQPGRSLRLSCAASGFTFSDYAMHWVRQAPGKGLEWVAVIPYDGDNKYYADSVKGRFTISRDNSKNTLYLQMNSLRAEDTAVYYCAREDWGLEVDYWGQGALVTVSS VL: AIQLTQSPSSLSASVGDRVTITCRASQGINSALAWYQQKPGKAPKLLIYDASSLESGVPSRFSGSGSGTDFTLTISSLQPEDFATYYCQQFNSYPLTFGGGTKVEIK ? 96%

What value of measured % kill, BxPC3 cells, anti-kappa-ETA' assay is listed for Anti-TF HuMab 111 (antibody, IgG1, V domains shown, full length, fully human monoclonal IgG1,kappa) VH: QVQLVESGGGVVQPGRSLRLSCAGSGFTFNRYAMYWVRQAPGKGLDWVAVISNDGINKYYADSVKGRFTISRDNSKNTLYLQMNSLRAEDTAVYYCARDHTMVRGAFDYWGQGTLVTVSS VL: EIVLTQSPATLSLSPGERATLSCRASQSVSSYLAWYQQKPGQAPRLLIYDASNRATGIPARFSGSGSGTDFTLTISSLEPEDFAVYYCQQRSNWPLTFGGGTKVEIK ? 98%

Data origin, for the record: patent US20240294661A1
